- target of assay: wild-type human cardiac sodium channel, hNav1.5 (Homo sapiens)
- assay text: Peak INa screening assay (tonic and use-dependent block)
- Format: cell-based
- experimental setup: use-dependent block of peak INa, 3 Hz; compound at 1 μM; read-out: Peak UDB 1 μM
Recorded inhibition at 1 µM, one value per entry.
outcome measure: inhibition at 1 µM (%)

INSERT INTO assay_data (smiles_data, value_measured) VALUES
  ('Cn1cc(C(=O)N2CCOc3ccc(-c4ccc(OC(F)(F)F)cc4)cc3C2)cn1', 17),
  ('Cn1ccc(CN2CCOc3ccc(-c4ccc(OC(F)(F)F)cc4)cc3C2=O)n1', 19),
  ('Cc1cccnc1CN1CCOc2ccc(-c3ccc(OC(F)(F)F)cc3)cc2C1=O', 59),
  ('O=C1c2cc(-c3ccc(OC(F)(F)F)cc3)ccc2OCCN1Cc1nccn1Cc1ccccc1', 21),
  ('Cc1cccc(CN2CCOc3ccc(-c4ccc(OC(F)(F)F)cc4)cc3C2=O)n1', 46),
  ('O=C1c2cc(-c3ccc(OCC4CCC4)cc3)ccc2OCCN1Cc1ncccn1', 41),
  ('Cc1cncc(CN2CCOc3ccc(-c4ccc(OC(F)(F)F)cc4)cc3C2=O)n1', 16),
  ('O=C1c2cc(-c3ccc(OC(F)(F)F)cc3)ccc2OCCN1Cc1ccccc1', 34),
  ('O=C1c2cc(-c3ccc(OC(F)(F)F)cc3)ccc2OCCN1CCn1cccn1', 19),
  ('O=C1c2cc(-c3ccc(C(F)(F)F)cc3)ccc2OCCN1Cc1ncccc1F', 44),
  ('O=C1c2cc(-c3ccc(C(F)(F)F)cc3F)ccc2OCCN1Cc1ncccc1F', 31),
  ('O=C1c2cc(-c3ccc(C(F)(F)F)cc3)cc(F)c2OCCN1Cc1ccccc1', 34),
  ('Cc1ccnc(CN2CCOc3ccc(-c4ccc(OC(F)(F)F)cc4)cc3C2=O)n1', 23);

====

- target of assay: wild-type human cardiac sodium channel, hNav1.5 (Homo sapiens, UniProt Q14524)
- Sequence (Q14524 whole entry): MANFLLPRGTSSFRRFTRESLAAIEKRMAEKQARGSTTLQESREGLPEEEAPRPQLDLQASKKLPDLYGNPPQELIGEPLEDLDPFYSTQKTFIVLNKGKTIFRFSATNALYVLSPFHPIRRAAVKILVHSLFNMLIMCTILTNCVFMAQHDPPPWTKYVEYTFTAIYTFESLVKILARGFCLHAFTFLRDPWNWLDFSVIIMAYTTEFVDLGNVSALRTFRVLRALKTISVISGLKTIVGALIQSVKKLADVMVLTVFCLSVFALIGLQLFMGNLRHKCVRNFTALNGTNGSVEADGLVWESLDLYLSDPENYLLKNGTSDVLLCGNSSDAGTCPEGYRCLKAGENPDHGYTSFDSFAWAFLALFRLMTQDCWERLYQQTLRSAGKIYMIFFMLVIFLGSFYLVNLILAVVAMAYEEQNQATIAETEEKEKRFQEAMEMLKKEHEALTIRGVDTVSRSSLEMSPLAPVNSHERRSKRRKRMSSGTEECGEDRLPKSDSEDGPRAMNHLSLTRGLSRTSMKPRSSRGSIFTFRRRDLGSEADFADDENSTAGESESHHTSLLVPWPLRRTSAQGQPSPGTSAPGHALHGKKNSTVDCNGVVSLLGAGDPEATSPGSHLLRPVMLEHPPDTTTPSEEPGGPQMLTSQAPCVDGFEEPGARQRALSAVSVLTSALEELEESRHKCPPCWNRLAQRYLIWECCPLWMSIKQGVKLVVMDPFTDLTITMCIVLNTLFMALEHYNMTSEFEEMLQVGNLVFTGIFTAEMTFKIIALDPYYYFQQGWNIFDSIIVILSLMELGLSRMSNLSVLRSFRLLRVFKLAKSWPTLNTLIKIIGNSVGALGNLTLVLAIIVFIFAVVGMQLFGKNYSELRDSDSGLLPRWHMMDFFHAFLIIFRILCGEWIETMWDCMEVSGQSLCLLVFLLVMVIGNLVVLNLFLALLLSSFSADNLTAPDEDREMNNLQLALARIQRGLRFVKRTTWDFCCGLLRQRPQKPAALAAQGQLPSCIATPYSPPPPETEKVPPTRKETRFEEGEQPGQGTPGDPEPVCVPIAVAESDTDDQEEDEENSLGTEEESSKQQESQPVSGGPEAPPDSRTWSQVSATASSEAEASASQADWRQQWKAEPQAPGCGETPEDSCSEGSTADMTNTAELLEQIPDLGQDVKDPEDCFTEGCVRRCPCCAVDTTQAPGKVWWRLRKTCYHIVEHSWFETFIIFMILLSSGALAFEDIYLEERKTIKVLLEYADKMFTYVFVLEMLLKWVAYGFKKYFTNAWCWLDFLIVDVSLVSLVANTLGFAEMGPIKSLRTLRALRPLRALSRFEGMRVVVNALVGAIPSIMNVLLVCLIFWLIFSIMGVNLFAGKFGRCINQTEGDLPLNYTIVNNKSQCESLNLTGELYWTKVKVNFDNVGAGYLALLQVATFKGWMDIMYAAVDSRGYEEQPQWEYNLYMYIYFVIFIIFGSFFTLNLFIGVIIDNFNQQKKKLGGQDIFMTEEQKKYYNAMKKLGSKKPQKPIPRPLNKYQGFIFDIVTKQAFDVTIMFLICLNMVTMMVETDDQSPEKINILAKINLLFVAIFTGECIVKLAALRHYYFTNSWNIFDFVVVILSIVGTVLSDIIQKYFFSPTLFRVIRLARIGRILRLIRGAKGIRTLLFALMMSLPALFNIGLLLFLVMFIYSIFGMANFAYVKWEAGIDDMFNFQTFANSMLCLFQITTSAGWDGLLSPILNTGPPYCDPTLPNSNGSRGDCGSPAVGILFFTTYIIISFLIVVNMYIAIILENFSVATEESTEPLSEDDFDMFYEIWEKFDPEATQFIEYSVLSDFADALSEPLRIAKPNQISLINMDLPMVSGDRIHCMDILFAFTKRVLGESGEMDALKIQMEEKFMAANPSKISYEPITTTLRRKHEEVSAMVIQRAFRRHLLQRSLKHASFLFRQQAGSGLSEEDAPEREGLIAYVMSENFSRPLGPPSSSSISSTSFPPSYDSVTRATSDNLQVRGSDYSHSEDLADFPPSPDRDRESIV
- assay text: Late INa screening assay (QPatch whole cell patch clamp, HEK293)
- Type: cell-based
- experimental setup: HEK293, percent block of late INa; compound at 1 μM; 10 μM Tefluthrin; read-out: Late INa 1 μM
Assign classes using reported inhibition at 1 µM values and the ranges low class (below 20%), middle class (20% to below 40%), high class (40% or more), please.

INSERT INTO results (compound, target_of_assay, category_label) VALUES
  ('O=C1c2cc(-c3ccc(C4CC4)s3)ccc2OCCN1Cc1ncccn1 [VI-36]', 'wild-type human cardiac sodium channel, hNav1.5 (Homo sapiens, UniProt Q14524)', 'high class'),
  ('O=C1c2cc(-c3ccc(C(F)(F)F)cc3Cl)ccc2OCCN1Cc1ncccn1 [II-110]', 'wild-type human cardiac sodium channel, hNav1.5 (Homo sapiens, UniProt Q14524)', 'middle class'),
  ('O=C1c2cc(Nc3ccc(C(F)(F)F)cc3)ccc2OCCN1Cc1ncccn1 [XIII-3]', 'wild-type human cardiac sodium channel, hNav1.5 (Homo sapiens, UniProt Q14524)', 'low class'),
  ('COc1cccnc1CN1CCOc2cnc(-c3ccc(OC(F)(F)F)cc3)cc2C1=O [XII-10]', 'wild-type human cardiac sodium channel, hNav1.5 (Homo sapiens, UniProt Q14524)', 'high class'),
  ('CC(C)c1ccc(-c2ccc3c(c2)C(=O)N(Cc2ncccn2)CCO3)cc1 [II-89]', 'wild-type human cardiac sodium channel, hNav1.5 (Homo sapiens, UniProt Q14524)', 'middle class'),
  ('CC(C)(C)OC(=O)N1CCn2cc(C(=O)N3CCOc4ccc(-c5ccc(C(F)(F)F)cc5)cc4C3)nc2C1 [III-40]', 'wild-type human cardiac sodium channel, hNav1.5 (Homo sapiens, UniProt Q14524)', 'middle class'),
  ('O=C1c2cc(-c3ccc(OC(F)(F)F)cc3)ccc2OCCN1CCO [II-71]', 'wild-type human cardiac sodium channel, hNav1.5 (Homo sapiens, UniProt Q14524)', 'low class'),
  ('O=C1c2cc(-c3ccc(OC(F)F)cc3)ccc2OCCN1Cc1ccccn1 [II-159]', 'wild-type human cardiac sodium channel, hNav1.5 (Homo sapiens, UniProt Q14524)', 'middle class'),
  ('O=C1c2cc(-c3ccc(OC(F)(F)F)cc3)ccc2OCCN1CCNS(=O)(=O)c1ccccc1 [II-177]', 'wild-type human cardiac sodium channel, hNav1.5 (Homo sapiens, UniProt Q14524)', 'middle class'),
  ('O=C1c2cc(-c3ccc(C(F)(F)F)cc3)ccc2OCCN1Cc1ncccc1F [II-176]', 'wild-type human cardiac sodium channel, hNav1.5 (Homo sapiens, UniProt Q14524)', 'high class'),
  ('O=C1c2cc(-c3ccc(C(F)(F)F)cc3)ccc2-n2ccnc2CN1Cc1ccccc1 [Compound X-12]', 'wild-type human cardiac sodium channel, hNav1.5 (Homo sapiens, UniProt Q14524)', 'middle class');
